# Target under test: Transient receptor potential cation channel subfamily V member 1 (Homo sapiens, UniProt Q8NER1)
# Sequence (Q8NER1 whole entry): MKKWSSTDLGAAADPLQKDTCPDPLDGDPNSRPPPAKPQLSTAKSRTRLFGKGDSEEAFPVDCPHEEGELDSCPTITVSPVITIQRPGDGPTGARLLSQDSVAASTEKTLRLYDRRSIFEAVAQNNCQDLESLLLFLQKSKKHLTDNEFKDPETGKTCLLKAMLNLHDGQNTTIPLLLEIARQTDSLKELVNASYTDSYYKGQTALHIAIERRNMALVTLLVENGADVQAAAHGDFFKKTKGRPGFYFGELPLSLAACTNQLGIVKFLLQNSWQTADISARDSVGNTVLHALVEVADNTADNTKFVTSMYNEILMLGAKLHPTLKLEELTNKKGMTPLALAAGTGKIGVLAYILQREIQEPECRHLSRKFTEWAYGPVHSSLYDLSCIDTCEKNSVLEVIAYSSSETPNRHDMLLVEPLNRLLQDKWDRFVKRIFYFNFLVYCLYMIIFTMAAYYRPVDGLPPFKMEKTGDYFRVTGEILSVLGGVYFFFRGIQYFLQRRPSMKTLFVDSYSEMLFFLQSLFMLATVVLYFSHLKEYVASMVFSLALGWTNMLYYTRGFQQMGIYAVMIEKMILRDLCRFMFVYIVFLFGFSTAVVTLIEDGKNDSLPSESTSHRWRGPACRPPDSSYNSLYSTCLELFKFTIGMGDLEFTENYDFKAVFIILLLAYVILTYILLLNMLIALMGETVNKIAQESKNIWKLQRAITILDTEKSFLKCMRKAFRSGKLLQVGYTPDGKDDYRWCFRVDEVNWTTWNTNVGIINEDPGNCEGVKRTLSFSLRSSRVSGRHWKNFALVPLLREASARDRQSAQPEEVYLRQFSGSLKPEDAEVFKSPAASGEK
# Assay details: Antagonist activity against human TRPV1 expressed in HEK293 cells assessed as inhibition of capsaicin-induced intracellular Ca2+ level pre-treated 5 mins before capsaicin stimulation by Fluo-4-AM dye based spectrofluorimetry
pIC50: −log10 of the molar value.
The entries below are paired with their reported pIC50.

Worked set:
O=C(/C=C/c1cccc([N+](=O)[O-])c1)Nc1ccccc1Cl < 5.00
O=C(/C=C/c1cccc([N+](=O)[O-])c1)Nc1ccccc1O < 5.00
O=C(/C=C/c1cccc([N+](=O)[O-])c1)Nc1cccc(O)c1 < 5.00
O=C(/C=C/c1cccc([N+](=O)[O-])c1)Nc1ccccc1Br < 5.00
Cc1ccccc1NC(=O)/C=C/c1cccc([N+](=O)[O-])c1 < 5.00

// field: pIC50; key: `CC(C)c1ccccc1NC(=O)/C=C/c1cccc([N+](=O)[O-])c1` ; value = < 5.00

// field: pIC50; key: `CS(=O)(=O)Nc1ccccc1NC(=O)/C=C/c1cccc([N+](=O)[O-])c1` ; value = < 5.00

// field: pIC50; key: `O=C(/C=C/c1cccc([N+](=O)[O-])c1)Nc1ccccc1I` ; value = < 5.00

====

# Target under test: Transient receptor potential cation channel subfamily M member 8 (Rattus norvegicus, UniProt Q8R455)
# Sequence (Q8R455 whole entry): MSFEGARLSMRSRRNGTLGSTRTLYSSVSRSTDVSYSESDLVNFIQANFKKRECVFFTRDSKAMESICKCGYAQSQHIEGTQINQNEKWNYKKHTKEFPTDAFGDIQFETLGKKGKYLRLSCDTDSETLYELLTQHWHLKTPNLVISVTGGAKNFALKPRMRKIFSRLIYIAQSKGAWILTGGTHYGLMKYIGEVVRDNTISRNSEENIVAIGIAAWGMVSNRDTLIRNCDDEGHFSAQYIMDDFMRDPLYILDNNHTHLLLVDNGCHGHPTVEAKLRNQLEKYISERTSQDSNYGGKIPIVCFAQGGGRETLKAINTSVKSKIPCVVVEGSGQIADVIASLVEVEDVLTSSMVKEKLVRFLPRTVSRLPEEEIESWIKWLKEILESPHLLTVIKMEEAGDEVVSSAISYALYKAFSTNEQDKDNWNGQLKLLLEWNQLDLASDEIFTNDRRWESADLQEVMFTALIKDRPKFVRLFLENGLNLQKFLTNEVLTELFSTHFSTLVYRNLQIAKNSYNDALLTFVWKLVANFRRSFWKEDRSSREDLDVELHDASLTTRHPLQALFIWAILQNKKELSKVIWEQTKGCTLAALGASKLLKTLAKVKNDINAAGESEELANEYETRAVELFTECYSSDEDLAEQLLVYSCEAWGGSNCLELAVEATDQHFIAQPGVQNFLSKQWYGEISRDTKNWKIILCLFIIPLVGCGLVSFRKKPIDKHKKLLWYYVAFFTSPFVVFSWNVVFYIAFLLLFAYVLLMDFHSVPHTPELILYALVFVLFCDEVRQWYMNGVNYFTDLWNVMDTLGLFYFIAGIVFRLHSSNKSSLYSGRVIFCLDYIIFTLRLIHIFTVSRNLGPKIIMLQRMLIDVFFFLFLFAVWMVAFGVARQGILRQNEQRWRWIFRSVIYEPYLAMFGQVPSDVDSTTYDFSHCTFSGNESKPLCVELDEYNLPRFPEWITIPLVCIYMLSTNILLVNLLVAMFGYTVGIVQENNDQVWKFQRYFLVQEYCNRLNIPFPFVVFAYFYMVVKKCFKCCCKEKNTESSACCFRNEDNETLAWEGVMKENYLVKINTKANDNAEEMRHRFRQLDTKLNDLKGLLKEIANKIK
# Assay details: Antagonist activity against rat TRPM8 expressed in HEK293 cells assessed as inhibition of icilin-induced intracellular Ca2+ level pre-treated 5 mins before icilin stimulation by Fluo-4-AM dye based spectrofluorimetry
The entries below are paired with their reported pIC50.
Please treat pIC50 as minus the base-10 logarithm of the molar concentration.

Worked set:
CC(C)c1ccccc1NC(=O)/C=C/c1cccc([N+](=O)[O-])c1 5.21
O=C1NC(c2ccc([N+](=O)[O-])cc2)=CCN1c1ccccc1O 5.24
O=C(/C=C/c1cccc([N+](=O)[O-])c1)Nc1ccccc1Br 5.82

// field: pIC50; key: `COc1ccccc1N1CC=C(c2cccc([N+](=O)[O-])c2)NC1=O` ; value = 5.08

// field: pIC50; key: `O=C(/C=C/c1cccc([N+](=O)[O-])c1)Nc1ccccc1O` ; value = 5.72

// field: pIC50; key: `Cc1ccccc1NC(=O)/C=C/c1cccc([N+](=O)[O-])c1` ; value = 5.70

// field: pIC50; key: `O=C1NC(c2cccc([N+](=O)[O-])c2)=CCN1c1cccc(I)c1` ; value = 6.33

// field: pIC50; key: `COc1cccc(NC(=O)/C=C/c2cccc([N+](=O)[O-])c2)c1` ; value = 5.96

// field: pIC50; key: `CC(C)(C)c1cccc(NC(=O)/C=C/c2cccc([N+](=O)[O-])c2)c1` ; value = 6.22

// field: pIC50; key: `O=C1NC(c2ccc([N+](=O)[O-])cc2)=CCN1c1ccc(O)cc1` ; value = 4.94

====

# Target under test: Transient receptor potential cation channel subfamily M member 8 (Rattus norvegicus) (UniProt Q8R455)
# Sequence (Q8R455 whole entry, looked up): as the sequence (Q8R455 whole entry) above
# Assay details: Agonist activity at rat TRPM8 expressed in HEK293 cells assessed as induction of intracellular Ca2+ level by Fluo-4-AM dye based spectrofluorimetry relative to 4 uM ionomycin
# Format: cell-based
The entries below are paired with their reported Efficacy.

Compound	Meas value
COc1ccccc1N1CC=C(c2ccc([N+](=O)[O-])cc2)NC1=O	< 10%

// field: Efficacy; key: `O=C1NC(c2cccc([N+](=O)[O-])c2)=CCN1c1ccc(O)cc1` ; value = < 10%

// field: Efficacy; key: `Cc1ccc(O)c(N2CC=C(c3ccc([N+](=O)[O-])cc3)NC2=O)c1` ; value = < 10%

// field: Efficacy; key: `O=C1NC(c2cccc([N+](=O)[O-])c2)=CCN1c1ccccc1F` ; value = < 10%

// field: Efficacy; key: `O=C1NC2=C(CCc3ccccc32)CN1c1ccccc1O` ; value = < 10%

// field: Efficacy; key: `O=C1NC(c2ccc([N+](=O)[O-])cc2)=CCN1c1ccccc1O` ; value = < 10%

// field: Efficacy; key: `NC(=O)c1ccccc1N1CC=C(c2cccc([N+](=O)[O-])c2)NC1=O` ; value = 47.2%

// field: Efficacy; key: `COc1ccccc1N1CC2=C(NC1=O)c1ccccc1CC2` ; value = < 10%

// field: Efficacy; key: `O=C1NC(c2cccc([N+](=O)[O-])c2)=CCN1c1ccccc1I` ; value = 52.7%

// field: Efficacy; key: `COc1cccc(N2CC=C(c3cccc([N+](=O)[O-])c3)NC2=O)c1` ; value = 57.5%

// field: Efficacy; key: `CCNC(=O)c1ccccc1N1CC=C(c2cccc([N+](=O)[O-])c2)NC1=O` ; value = < 10%

// field: Efficacy; key: `CS(=O)(=O)Nc1cccc(N2CC=C(c3cccc([N+](=O)[O-])c3)NC2=O)c1` ; value = < 10%

====

The entries below are paired with their reported pIC50.
# Target under test: Transient receptor potential cation channel subfamily V member 1 (Homo sapiens, UniProt Q8NER1)
# Assay details: Antagonist activity against human TRPV1 expressed in HEK293 cells assessed as inhibition of capsaicin-induced intracellular Ca2+ level pre-treated 5 mins before capsaicin stimulation by Fluo-4-AM dye based spectrofluorimetry
pIC50: −log10 of the molar value.

Worked set:
O=C(/C=C/c1cccc([N+](=O)[O-])c1)Nc1ccccc1CO < 5.00
Cc1cccc(NC(=O)/C=C/c2cccc([N+](=O)[O-])c2)c1 < 5.00

Now take the following compound into account.
// field: pIC50; key: `CC(C)(C)c1cccc(NC(=O)/C=C/c2cccc([N+](=O)[O-])c2)c1` ; value = < 5.00

====

The entries below are paired with their reported IC50.
# Target under test: Transient receptor potential cation channel subfamily M member 8 (Rattus norvegicus)
# Assay details: Antagonist activity against rat TRPM8 expressed in HEK293 cells assessed as inhibition of icilin-induced intracellular Ca2+ level pre-treated 5 mins before icilin stimulation by Fluo-4-AM dye based spectrofluorimetry
Express your answer in µM, writing the number without its unit.

Worked set:
COc1ccccc1N1CC=C(c2ccc([N+](=O)[O-])cc2)NC1=O 11.4
O=C(/C=C/c1cccc([N+](=O)[O-])c1)Nc1ccccc1Cl 1.7
Cc1ccc(N2CC=C(c3cccc([N+](=O)[O-])c3)NC2=O)c(O)c1 1.4
COc1ccccc1N1CC2=C(NC1=O)c1ccccc1CC2 6.6

// field: IC50; key: `Cc1ccc(O)c(N2CC=C(c3cccc([N+](=O)[O-])c3)NC2=O)c1` ; value = 0.26

// field: IC50; key: `O=C1NC(c2cccc([N+](=O)[O-])c2)=CCN1c1ccccc1F` ; value = 8.7

// field: IC50; key: `COc1cccc(-n2cc(-c3cccc([N+](=O)[O-])c3)[nH]c2=O)c1` ; value = 33.9

// field: IC50; key: `O=C(/C=C/c1cccc([N+](=O)[O-])c1)Nc1cccc(Cl)c1` ; value = 0.17

====

The entries below are paired with their reported Efficacy.
# Target under test: Transient receptor potential cation channel subfamily M member 8 (Rattus norvegicus)
# Assay details: Agonist activity at rat TRPM8 expressed in HEK293 cells assessed as induction of intracellular Ca2+ level by Fluo-4-AM dye based spectrofluorimetry relative to 4 uM ionomycin
# Type: cell-based

COc1ccc(N2CC=C(c3cccc([N+](=O)[O-])c3)NC2=O)cc1 < 10%
O=C1NC(c2cccc([N+](=O)[O-])c2)=CCN1c1cccc(I)c1 30.9%

Fill in: Transient receptor potential cation channel subfamily M member 8 (Rattus norvegicus) Efficacy for `O=C1NC(c2cccc([N+](=O)[O-])c2)=CCN1c1ccccc1Cl` = 41.8%

Fill in: Transient receptor potential cation channel subfamily M member 8 (Rattus norvegicus) Efficacy for `O=C1NC(c2cccc([N+](=O)[O-])c2)=CCN1c1ccccc1O` = 75.1%

Fill in: Transient receptor potential cation channel subfamily M member 8 (Rattus norvegicus) Efficacy for `O=C1NC2=C(CCc3c2cccc3[N+](=O)[O-])CN1c1ccccc1O` = < 10%

Fill in: Transient receptor potential cation channel subfamily M member 8 (Rattus norvegicus) Efficacy for `O=C1NC2=C(CCc3ccc([N+](=O)[O-])cc32)CN1c1ccccc1O` = < 10%

====

# Target under test: Transient receptor potential cation channel subfamily M member 8 (Rattus norvegicus)
# Assay details: Antagonist activity against rat TRPM8 expressed in HEK293 cells assessed as inhibition of icilin-induced intracellular Ca2+ level pre-treated 5 mins before icilin stimulation by Fluo-4-AM dye based spectrofluorimetry
The entries below are paired with their reported pIC50.
Please treat pIC50 as minus the base-10 logarithm of the molar concentration.

O=C1NC(c2cccc([N+](=O)[O-])c2)=CCN1c1cccc(Cl)c1 5.36
O=C(/C=C/c1cccc([N+](=O)[O-])c1)Nc1cccc(Br)c1 6.85
O=C1NC2=C(CCc3ccc([N+](=O)[O-])cc32)CN1c1ccccc1O 4.74
COc1ccccc1NC(=O)/C=C/c1cccc([N+](=O)[O-])c1 5.74

// field: pIC50; key: `CC1=C(c2cccc([N+](=O)[O-])c2)NC(=O)N(c2ccccc2O)C1` ; value = 4.84
